Source listed as ChEMBL document CHEMBL5674860.

Tested on: Colon cancer organoid
Protocol Details: Optimized Dual-Glo assay to identify co-culture induced drug vulnerabilities using donated chemical probes and chemogenomics kinase set in O06 CRC organoid and F06 CAF mono and co-culture. […] Cell viability is reported both mono and co-culture models.
Assay type: functional, Homo sapiens
Parameters: dose or concentration left out as unconfirmed
Condition Details: Culture type Co-Culture; Transduced with Renilla-dsRed lentivirus
Parameter: Cell Viability (%)
Kindly answer with a numeric value in %, unit omitted.

# input Given the entry C[C@@H](c1cccc(C#N)c1)n1cc(Cl)cc(C(N)=O)c1=N.Cl , report its measured Cell Viability.
# output 127.503

# input Given the entry CNCCN1CCC(OCc2ccccc2)CC1 , report its measured Cell Viability.
# output 144.179

# input Given the entry C=CC(=O)N1CCC([C@@H]2CCNc3c(C(N)=O)c(-c4ccc(Oc5ccccc5)cc4)nn32)CC1 , report its measured Cell Viability.
# output 136.235

# input Given the entry COc1ccc2c(O[C@@H]3C[C@H]4C(=O)N[C@]5(C(=O)O)CC5/C=C\CCCCC[C@H](NC(=O)OC5CCCC5)C(=O)N4C3)cc(-c3csc(NC(=O)C(C)C)n3)nc2c1C (stereo partly drawn) , report its measured Cell Viability.
# output 148.301

# input Given the entry CNC(=O)c1cc(C(=O)NC2CC2)cn(Cc2ccccc2)c1=O , report its measured Cell Viability.
# output 132.009

# input Given the entry Cc1cc(CN)cc(C)c1-c1ncn(C)c1-c1ccnc2cc(F)ccc12.Cl , report its measured Cell Viability.
# output 123.721

# input Given the entry O=C(c1ccc(C(=O)N2CCC(N3CCCC3)CC2)c(Nc2ccccc2)c1)N1CCC(N2CCCC2)CC1 , report its measured Cell Viability.
# output 96.0319

# input Given the entry CNCc1ccccc1-c1csc([C@@H](C)Nc2nc(C)nc3cc(OC)c(OC)cc23)c1 , report its measured Cell Viability.
# output 225.989
